Property: max response; scope: individual compounds
assay_name: Cycloheximide Counterscreen for Small Molecule Inhibitors of Shiga Toxin; note: read at 38.3 µM for the half of the compounds with a filed dose; 0% is about no effect
condition_info: cell reporter, cycloheximide protein synthesis inhibition counterscreen; stronger effect = higher value
About 37,000 (12%) of roughly 300,000 compounds were called active. Only a selection was taken, and actives are over-represented in it overall.
measurement_name: max response (%)

query_smiles=CCOc1ccc2[nH]c(=O)c(CN(CCCO)S(=O)(=O)c3ccc(F)cc3)cc2c1 measurement_name="max response" recorded_value=-6.67
query_smiles=CCOC(=O)N1CCN(Cc2nc3cc(NC(C)=O)ccc3n2C)CC1 measurement_name="max response" recorded_value=-2.56
query_smiles=Nc1nonc1-n1nnc(C(=O)N/N=C/C2CCCCC2)c1-c1ccccc1 measurement_name="max response" recorded_value=-3.53
query_smiles=COc1ccc(-n2cnc3cc(NCc4ccco4)ccc32)cc1 measurement_name="max response" recorded_value=20.3
query_smiles=Cc1cccc(N2C(=O)N3[C@H](c4ccc(F)cc4)[C@@H]4C(=O)N(C5CCCCC5)C(=O)[C@@H]4[C@]3(Cc3ccccc3)C2=O)c1 measurement_name="max response" recorded_value=1.33
query_smiles=COc1ccc(N2C(=O)/C(=C\c3ccco3)N=C2SCC(N)=O)cc1Cl measurement_name="max response" recorded_value=1.81
query_smiles=Cc1nc2cc(NCc3cccs3)ccc2n1C measurement_name="max response" recorded_value=51.1
query_smiles=O=C(CCN1C(=O)c2ccccc2C1=O)Nc1cccc(F)c1 measurement_name="max response" recorded_value=-3.51
query_smiles=COc1ccc(NC(=O)N2CCC3(CC2)OCCO3)c(OC)c1 measurement_name="max response" recorded_value=0.567
query_smiles=Cc1nc2cc(NC(=O)NC3CC3)ccc2n1C measurement_name="max response" recorded_value=20.8
query_smiles=COc1cc(OC)c(C(=S)N2CCCC2)cc1OC measurement_name="max response" recorded_value=-2.47

====

assay_name: Cycloheximide Counterscreen for Small Molecule Inhibitors of Shiga Toxin; note: read at 38.3 µM for the half of the compounds with a filed dose; 0% is about no effect
condition_info: cell reporter, cycloheximide protein synthesis inhibition counterscreen; stronger effect = higher value
Hit rate of the full screen: of about 300,000 compounds, about 37,000 (12%) were called active. The full list was thinned out, with actives kept by preference.
max response reference
measurement_name: max response (%)

molecule=C/C(=N\NS(=O)(=O)c1ccc(Br)cc1)c1cccs1 uom=% recorded_value=-1.14
molecule="O=C1c2ccccc2C(=O)N1CCC(c1ccccc1)c1ccco1 (stereo not given)" uom=% recorded_value=24.4
molecule=O=C(NC1CCCC1)c1cc(-c2ccccc2)on1 uom=% recorded_value=30.6
molecule=C/C(=N\Nc1nc(Nc2ccccc2)nc(N2CCOCC2)n1)c1cccs1 uom=% recorded_value=14.5
molecule=O=C(Nc1cccc(-c2cccc(Cl)c2)c1)C1CCN(C2CCC2)CC1 uom=% recorded_value=-5.18
molecule=COc1ccccc1Nc1ncnc2c1oc1ccccc12 uom=% recorded_value=22.8
molecule=CCOc1ccccc1Nc1ccc2nonc2c1[N+](=O)[O-] uom=% recorded_value=-3.05
molecule=COc1cccc(C(=O)Nc2ccc(N3CCN(C(=O)c4ccco4)CC3)cc2)c1 uom=% recorded_value=-5.64
molecule="CC1CN(C(=S)Nc2cccc(F)c2)CC(C)O1 (stereo not given)" uom=% recorded_value=-2.61
molecule="O=C(NCCCN1CCCCC1)C1CCCN(c2ncnc3c2nc2n3CCCCC2)C1 (stereo not given)" uom=% recorded_value=-1.32
molecule="Cc1ccc(C2(C(F)(F)F)N=C3Sc4cc(C)cc(C)c4N3C(=O)N2)cc1 (stereo not given)" uom=% recorded_value=18.6
molecule=CCN(CC)c1ccc(C(=O)N/N=C(\C)c2cccc(OC)c2)cc1 uom=% recorded_value=-2.4
molecule="CC(C(=O)NC1CCS(=O)(=O)C1)N1C(=O)/C(=C/c2ccc(Cl)cc2)SC1=S (stereo not given)" uom=% recorded_value=16.6
molecule=C/C(CCc1ccccc1)=N\NC(=O)c1ccc(CN2CCOCC2)cc1 uom=% recorded_value=6.88
molecule=O=C(NC1CCN(S(=O)(=O)c2ccc(F)cc2)CC1)c1ccccc1 uom=% recorded_value=-0.862
molecule=COc1cccc(/C(C)=N/Nc2ncc(Cl)cc2Cl)c1 uom=% recorded_value=41.6
molecule=O=C(Nc1ccccc1-c1nc2ccccc2[nH]c1=O)c1cccs1 uom=% recorded_value=0.926
molecule=O=C(Nc1ccccc1)Nc1ccc(C(F)(F)F)cn1 uom=% recorded_value=13
molecule=C=CCc1cccc(/C=N/NC(=O)COc2ccc(-n3cnnn3)cc2)c1O uom=% recorded_value=7.64
molecule=C/C(=N\Nc1ncc(Cl)cc1Cl)c1ccc(S(=O)(=O)NCc2ccco2)cc1 uom=% recorded_value=113
molecule=O=C(Nc1cc(C(F)(F)F)ccc1Cl)c1cc(C2CC2)on1 uom=% recorded_value=-4.3
molecule=CC1CCN(C(=O)c2ccc3c(=O)n4c(nc3c2)CCCCC4)CC1 uom=% recorded_value=14.9
molecule=C/C(=N\Nc1ncc(Cl)cc1Cl)c1cccs1 uom=% recorded_value=45.9
molecule=Clc1ccc(C[n+]2cc(-c3ccc(Cl)cc3)n3c2CCC3)cc1 uom=% recorded_value=1.82
molecule="CC(NC(=O)c1cc(-c2ccccc2)on1)c1ccccc1 (stereo not given)" uom=% recorded_value=3.69
molecule=CN1C(=O)/C(=N/OC(=O)c2ccccc2Br)c2ccccc21 uom=% recorded_value=3.18
molecule="CC1CC(C)CN(CCCNC(=O)Cn2ncc3c([nH]c4ccccc43)c2=O)C1 (stereo not given)" uom=% recorded_value=-2.29
molecule=COc1cccc(NC(=O)Cn2c3ccc(F)cc3c3nc4n(c(=O)c32)CCS4)c1 uom=% recorded_value=4.56
molecule=Cc1ccc(S(=O)(=O)N(C)CC(=O)NC2CCCC2)cc1 uom=% recorded_value=-2.07
molecule=COc1cc(OC)c(C(=O)NC2CCCCCC2)cc1OC uom=% recorded_value=-2.09
molecule=COc1ccc(C(=O)NC(=S)Nc2ccc(N3CCCC3)cc2)cc1OC uom=% recorded_value=-0.974
molecule="Cc1c(Cl)c([N+](=O)[O-])nn1CCCC(=O)NC(C)c1ccccc1 (stereo not given)" uom=% recorded_value=0.248
molecule="O=C1c2ccccc2C(=O)N1CCC(O)C[N+](=O)[O-] (stereo not given)" uom=% recorded_value=-2.75
molecule=COc1ccc(NC(=O)C/C(C)=N/NC(=O)c2cnccn2)cc1Cl uom=% recorded_value=53.7
molecule=CCCOc1ccc(-c2c(C(=O)N/N=C/c3ccco3)nnn2-c2nonc2N)cc1 uom=% recorded_value=-0.593
molecule=C/C(=N\NC(=O)CNC(=O)C(c1ccccc1)c1ccccc1)c1ccc(C)cc1 uom=% recorded_value=-6.41
molecule=CCn1c(/C=N/NC(=O)c2ccc(OC)cc2)nc2ccccc21 uom=% recorded_value=-2.39
molecule=Cc1ccc(NC(=O)NC(=O)N(C2CCCCC2)S(=O)(=O)c2ccccc2)cc1 uom=% recorded_value=40.9
molecule=C/C(=N\NC(=O)c1ccccc1C)c1ccc(N2CCOCC2)cc1 uom=% recorded_value=18.1
molecule=CN1CCN(c2ccc(NC(=O)c3ccccc3)cc2)CC1 uom=% recorded_value=30.4
molecule=Cc1ccc(C(=O)N/C(=C/c2cccnc2)C(=O)O)cc1 uom=% recorded_value=-0.563
molecule="CC1(C(=O)NCCc2c[nH]c3ccccc23)C=CC2(CCCCC2)N1C(=O)c1ccccc1 (stereo not given)" uom=% recorded_value=17.5
molecule=C/C(=N\Nc1nc2ccccc2[nH]1)c1cccs1 uom=% recorded_value=36.7
molecule=COc1ccc(N2CCN(C(=O)CSc3nc4cc(OC)c(OC)cc4cc3C#N)CC2)cc1 uom=% recorded_value=2.1
molecule=CN1CCN(c2ccc(NC(=O)c3ccc4c(c3)[nH]c(=O)n4Cc3ccc(F)cc3)cc2)CC1 uom=% recorded_value=-2.44

====

assay_name: Cycloheximide Counterscreen for Small Molecule Inhibitors of Shiga Toxin; note: read at 38.3 µM for the half of the compounds with a filed dose; 0% is about no effect
condition_info: cell reporter, cycloheximide protein synthesis inhibition counterscreen
Hit rate of the full screen: of about 300,000 compounds, about 37,000 (12%) were called active. Rule as the data show it: active = max response mostly above about 13% (no sharp cut-off); inactive = mostly below about 14%. The sample holds actives, similar compounds and a random draw of the others, so the mix is not that of the screen.
Possible outcomes: active, inactive

molecule="Cc1cccc(N2C(=O)C3C(c4ccccc4)OC4(C(=O)c5ccccc5C4=O)C3C2=O)c1 (configuration not stated)" classification=inactive
molecule=Oc1ccc(-c2nncn2-c2ccccc2)cc1 classification=inactive
molecule=Cc1cccc(N2C(=O)NC(=O)/C(=C\c3cnn(-c4ccccc4)c3)C2=O)c1 classification=active
molecule=N#C/C(=C/c1cccc([N+](=O)[O-])c1)c1nnc2n1CCCCC2 classification=inactive
molecule=O=C(CSc1ncn[nH]1)Nc1nsc(-c2ccccc2)n1 classification=inactive
molecule=CCCC[C@H]1COCCS(=O)(=O)N1Cc1cccc(Cl)c1 classification=inactive
molecule=Cc1cccc(OCC(=O)Nc2ccc(NC(=O)c3ccco3)c(C)c2)c1 classification=inactive
molecule=Nc1nc(NC(=O)/C=C/c2ccccc2)nn1-c1ccccc1 classification=inactive
molecule=O=C(CSc1nnnn1-c1ccc(O)cc1)c1ccc(F)cc1 classification=active
molecule=Cc1ccc(C(=O)Nc2nc(N)n(-c3ccccc3)n2)cc1 classification=active
molecule="Cc1ccc(C)c(S(=O)(=O)N2CCCOC2CNC(=O)C(=O)NC2CCCCC2)c1 (configuration not stated)" classification=inactive
molecule=COc1ccc(C(=O)NC2CC2)cc1OC1CCN(Cc2ccc(SC)cc2)CC1 classification=inactive
molecule=O=C(CN1CCN(c2ccc(O)cc2)CC1)Nc1ccc(-c2ccccc2)cc1 classification=inactive
molecule=Cc1ccc(OCC(=O)Nc2ccc(C(=O)O)cc2NC(=O)COc2ccc(C)c(C)c2)cc1C classification=inactive
molecule=O=C(CCC(=O)N/N=C/c1ccc(Br)o1)N/N=C/c1ccc(Br)o1 classification=inactive
molecule=O=C1/C(=C/c2ccc3c(c2)OCO3)CCC/C1=C\c1ccc2c(c1)OCO2 classification=inactive
molecule=COc1ccc(-n2nnnc2SCC(=O)c2ccc(OC)c(OC)c2)cc1 classification=inactive
molecule=O=C(Cn1ccc2cc(S(=O)(=O)N3CCCC3)ccc21)NCc1ccccc1 classification=inactive
molecule=CCCOc1ccc(Cc2c(O)nc(N)[nH]c2=O)cc1C classification=inactive
molecule="CCC(C)[C@H]1COCCS(=O)(=O)N1Cc1ccc(C)cc1 (some centres not stated)" classification=inactive
molecule=COC(=O)c1nc(NC(=O)c2ccccc2)n[nH]1 classification=inactive
molecule=O=S1(=O)CCOC[C@H](CC2CCCCC2)N1Cc1ccc(F)cc1 classification=active
